# System: Aeromonas hydrophila
# test-protocol: Antibacterial activity against Aeromonas hydrophila MTCC-1739 assessed as zone of inhibition at 1 ug/ml
# Assay type: functional
# setup-conditions: read-out: DIZ
Assign met whenever zone of inhibition at 1 µg/mL does not fall below 20 mm; assign not met whenever it does.

// below: answered compounds
CC(C)(C)c1nnc2sc(COc3ccc(Cl)cc3Cl)nn2c1=O :: not met
COc1ccccc1OCc1nn2c(=O)c(C(C)(C)C)nnc2s1 :: not met
CC(C)(C)c1nnc2sc(COc3cc(Cl)c(Cl)cc3Cl)nn2c1=O :: not met
CC(C)(C)c1nnc2sc(C(C)(C)Oc3ccc(Cl)cc3)nn2c1=O :: met

Attention now shifts to the item below.
# bool: zone of inhibition at 1 µg/mL of CC(C)(C)c1nnc2sc(COc3ccccc3Cl)nn2c1=O >= 20 mm not met

###

# Test system: Anopheles stephensi
# test-protocol: Larvicidal activity against Anopheles stephensi late III or early IV instar larvae assessed as mortality after 24 hrs
# Format: functional
# setup-conditions: Anopheles stephensi, iv, 24 h
Kindly state LC50 for each of the entries shown.
Please make sure the unit comes right after the number.

Cc1cc(Cl)ccc1OCc1nn2c(=O)c(C(C)(C)C)nnc2s1 :: 49.3 mg/L
CC(C)(C)c1nnc2sc(COc3ccccc3Cl)nn2c1=O :: 72.8 mg/L
COc1ccccc1OCc1nn2c(=O)c(C(C)(C)C)nnc2s1 :: 25.7 mg/L
CCOC(=O)CC(SP(=S)(OC)OC)C(=O)OCC (stereo not given) [MALATHION] :: 8.7 mg/L
CC(C)(C)c1nnc2sc(COc3ccc(O)cc3)nn2c1=O :: 21.7 mg/L
Cc1cccc(C)c1OCc1nn2c(=O)c(C(C)(C)C)nnc2s1 :: 103 mg/L
CC(C)(C)c1nnc2sc(C(C)(C)Oc3ccc(Cl)cc3)nn2c1=O :: 55.2 mg/L
CC(C)(C)c1nnc2sc(COc3ccc(Cl)cc3)nn2c1=O :: 61.3 mg/L
CC(C)(C)c1nnc2sc(COc3cc(Cl)c(Cl)cc3Cl)nn2c1=O :: 81.6 mg/L
CC(C)(C)c1nnc2sc(COc3ccc(I)cc3)nn2c1=O :: 77.5 mg/L

Look up LC50 for the entries below, preserving their order.
1. CC(C)(C)c1nnc2sc(COc3ccccc3[N+](=O)[O-])nn2c1=O
2. CC(C)(C)c1nnc2sc(COc3ccc(Cl)cc3Cl)nn2c1=O
3. CC(C)(C)c1nnc2sc(COc3ccccc3)nn2c1=O
4. Cc1cc(C)c(C)c(OCc2nn3c(=O)c(C(C)(C)C)nnc3s2)c1
5. CC(=O)c1ccc(OCc2nn3c(=O)c(C(C)(C)C)nnc3s2)cc1

70.5 mg/L
48.7 mg/L
79.2 mg/L
39.8 mg/L
86.6 mg/L

###

# Tested on: Aeromonas hydrophila
# test-protocol: Antibacterial activity against Aeromonas hydrophila MTCC-1739 assessed as zone of inhibition at 1 ug/ml
# Format: functional
# setup-conditions: read-out: DIZ
Assign Condition met whenever zone of inhibition at 1 µg/mL does not fall below 10 mm; assign Condition not met whenever it does.

CC(C)(C)c1nnc2sc(COc3ccccc3[N+](=O)[O-])nn2c1=O :: Condition not met
CC(C)(C)c1nnc2sc(COc3ccc(O)cc3)nn2c1=O :: Condition met
CC(=O)c1ccc(OCc2nn3c(=O)c(C(C)(C)C)nnc3s2)cc1 :: Condition met
Cc1cc(C)c(C)c(OCc2nn3c(=O)c(C(C)(C)C)nnc3s2)c1 :: Condition met
Cc1cccc(C)c1OCc1nn2c(=O)c(C(C)(C)C)nnc2s1 :: Condition met

Attention now shifts to the item below.
# bool: zone of inhibition at 1 µg/mL of CC(C)(C)c1nnc2sc(COc3ccc(Cl)cc3)nn2c1=O >= 10 mm Condition met

###

Kindly state zone of inhibition at 1 µg/mL for each of the entries shown.
# System: Bacillus subtilis
# test-protocol: Antibacterial activity against Bacillus subtilis MTCC-441 assessed as zone of inhibition at 1 ug/ml
# Assay type: functional
# setup-conditions: read-out: DIZ
One number for each entry, in mm.

CC(C)(C)c1nnc2sc(COc3ccc(I)cc3)nn2c1=O :: 11.9
Cc1cc(C)c(C)c(OCc2nn3c(=O)c(C(C)(C)C)nnc3s2)c1 :: 15.6

Look up zone of inhibition at 1 µg/mL for the entries below, preserving their order.
1. CC(C)(C)c1nnc2sc(COc3ccc(Cl)cc3Cl)nn2c1=O
2. CC(C)(C)c1nnc2sc(COc3ccccc3[N+](=O)[O-])nn2c1=O
3. CC(C)(C)c1nnc2sc(COc3ccc(Cl)cc3)nn2c1=O
4. Cc1cccc(C)c1OCc1nn2c(=O)c(C(C)(C)C)nnc2s1

1: 12.9; 2: 16.8; 3: 11.2; 4: 9.8

Look up zone of inhibition at 1 µg/mL for the entries below, preserving their order.
1. CC(C)(C)c1nnc2sc(COc3cc(Cl)c(Cl)cc3Cl)nn2c1=O
2. COc1ccccc1OCc1nn2c(=O)c(C(C)(C)C)nnc2s1
3. CC(C)(C)c1nnc2sc(COc3ccccc3Cl)nn2c1=O
4. CC(C)(C)c1nnc2sc(C(C)(C)Oc3ccc(Cl)cc3)nn2c1=O

1: 19.3; 2: 19.2; 3: 18.9; 4: 18.4

Record request: zone of inhibition at 1 µg/mL value, item CC(=O)c1ccc(OCc2nn3c(=O)c(C(C)(C)C)nnc3s2)cc1 25.7
